Tested on: HEK293 cells
Assay: Toxicity of coelenterazines in HEK293 cells (CELLTITER-GLO)
Conditions: 24 hrs after compound addition
measured quantity: Viability (normalized to vehicle (DMSO) control) (%)
// note: answer is a bare numeric in %

Short answer for `O=c1c(Cc2ccco2)nc2c(Cc3ccccc3)[nH]c(-c3ccc(O)cc3)cn1-2` : Viability (normalized to vehicle (DMSO) control) (%) was 100

Given item `O=c1c(Cc2cccs2)nc2c(Cc3ccccc3)[nH]c(-c3ccc(O)cc3)cn1-2` , the value recorded as its Viability (normalized to vehicle (DMSO) control) (%) is 100

Record `CC(C)c1[nH]c(-c2ccccc2)cn2c(=O)c(Cc3ccc(O)cc3)nc1-2` . Reported Viability (normalized to vehicle (DMSO) control) (%): 100

Documented Viability (normalized to vehicle (DMSO) control) (%) of O=c1c(Cc2ccccc2)nc2c(Cc3ccccc3)[nH]c(-c3ccccc3)cn1-2 [Coelenterazine hh, bis-deoxycoelenterazine, reference compound] : 87

---

Tested on: HEK293 cells
Settings: human, 24 h
measured quantity: Viability (normalized to vehicle (DMSO) control) (%)

Response field Viability (normalized to vehicle (DMSO) control) (%) (HEK293 cells) for item O=c1c(Cc2ccc(O)cc2)nc2c(C3CC3)[nH]c(-c3ccccc3)cn1-2 [PBI-3897] : 100%

Sample O=c1c(Cc2ccc(O)cc2)nc2c(Cc3ccccc3)[nH]c(-c3ccccc3)cn1-2 [PBI-3840] , system: HEK293 cells. Its Viability (normalized to vehicle (DMSO) control) (%) is 60%

Here Oc1ccc(Cc2nc3c(Cc4ccccc4)nc(-c4ccc(O)cc4)cn3c2O)cc1 [Native coelenterazine, coelenterazine, reference compound] was tested on HEK293 cells, and its Viability (normalized to vehicle (DMSO) control) (%) came to 100%

Query O=c1c(Cc2cccs2)nc2c(Cc3ccccc3)[nH]c(-c3ccccc3)cn1-2 [PBI-3889] on HEK293 cells; Viability (normalized to vehicle (DMSO) control) (%) returned: 90%

GET /values?item= O=c1c(Cc2ccco2)nc2c(Cc3ccccc3)[nH]c(-c3ccccc3)cn1-2 [PBI-3939] &system= HEK293 cells returns Viability (normalized to vehicle (DMSO) control) (%): 89%

---

Please respond with reported RLU for every item in the list.
Target: L27V02 enzyme (Oplophorus gracilirostris, UniProt Q9GV45, A31E/A60N/A81I/F95D/I117V/K70R/L54V/L99Q/M102K/N193R/P142E/Q151K/Q38R/Q45L/V71I/Y165I)
Construct: The N-terminus of the OgLuc variant L27V is methionine, valine and phenylalanine, i.e., MVF; made in house
Sequence (Q9GV45 28-196 with tags or gaps with the stated changes limits assumed, one chain of several): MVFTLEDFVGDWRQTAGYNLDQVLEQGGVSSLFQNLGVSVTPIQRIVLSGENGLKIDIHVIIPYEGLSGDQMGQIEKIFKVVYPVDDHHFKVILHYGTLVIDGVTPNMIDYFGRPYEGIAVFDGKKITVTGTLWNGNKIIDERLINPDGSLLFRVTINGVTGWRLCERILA
Experiment: Luminescence of compounds with purified L27V02 enzyme
Assay type: biochemical
Details: 20 μM compound, 36 pM L27V02, pH 7, 3 min

Documented RLU of O=c1c(Cc2ncc[nH]2)nc2c(Cc3ccccc3)[nH]c(-c3ccccc3)cn1-2 [PBI-4541] : 5,676 RLU

Per the records, this compound ( O=c1c(Cc2ccco2)nc2c(Cc3ccccc3)[nH]c(-c3ccccc3)cn1-2 [PBI-3939] ) has RLU equal to 9,808,880 RLU

# RLU of Cn1ccnc1Cc1nc2c(Cc3ccccc3)[nH]c(-c3ccccc3)cn-2c1=O [PBI-4525] = 20,655 RLU

// recorded RLU for Cn1ccnc1CC1=NC2=C(Cc3ccccc3)NC(c3ccccc3)(c3ccc(O)cc3)CN2C1=O (stereo not shown) [PBI-4540] : 909 RLU
